Protein target, amino acids: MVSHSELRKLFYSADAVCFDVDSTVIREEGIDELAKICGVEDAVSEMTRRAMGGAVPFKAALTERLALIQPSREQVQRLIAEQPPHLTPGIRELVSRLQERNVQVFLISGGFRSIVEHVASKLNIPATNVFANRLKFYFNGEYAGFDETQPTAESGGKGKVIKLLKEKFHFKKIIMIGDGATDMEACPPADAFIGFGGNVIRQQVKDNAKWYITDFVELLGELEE
QUANTITY: IC50 (µM)
One number for each entry, in µM.

Q) Look up IC50: N[C@@H](CO)C(=O)O
A) 290

----------
- TARGET DESC: human phosphoserine phosphatase (PSP) (Homo sapiens, UniProt P78330, N133S)
- Sequence (P78330 whole entry N133S): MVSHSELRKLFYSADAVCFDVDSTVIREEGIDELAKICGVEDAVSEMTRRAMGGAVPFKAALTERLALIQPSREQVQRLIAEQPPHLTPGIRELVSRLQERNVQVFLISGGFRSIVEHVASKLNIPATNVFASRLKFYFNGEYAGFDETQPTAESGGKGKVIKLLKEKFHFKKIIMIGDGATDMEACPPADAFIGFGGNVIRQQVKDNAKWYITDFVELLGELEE
- TEST METHOD NOTES: PNP-coupled phosphate release assay (MESG, […] nm)
- CONDITIONS USED: read-out: Asn133Ser
QUANTITY: IC50

Q) State the recorded IC50 for this entry: N[C@@H](CO)C(=O)O [L-serine]
A) 250 µM
